Source of measurements: ChEMBL document CHEMBL1138613

- protocolSummary: Cytotoxicity against human HuH7 cells after 5 days by ATPlite luminescence assay
- Assay type: cell-based, Huh-7
Property: CC50 at 120 h; scope: individual compounds
Kindly answer with a numeric value in µM, unit omitted.

Use the examples below as a reference point.
- compound: "CC1(C)CC(=O)C2=C(C1)Nc1c(O)cccc1N(C(=O)c1ccncc1)C2c1ccc(OCc2ccccc2)cc1F (centres undefined)"
  CC50 at 120 h (µM): 76
- compound: "CC(C)C(=O)N1c2cccc(O)c2NC2=C(C(=O)CC(C)(C)C2)C1c1ccc(OCc2ccccc2)cc1F (centres undefined)"
  CC50 at 120 h (µM): 14
- compound: "Cc1cc(C(=O)N2c3cccc(O)c3NC3=C(C(=O)CC(C)(C)C3)C2c2ccc(OCc3ccccc3)cc2F)no1 (centres undefined)"
  CC50 at 120 h (µM): 45

Proceeding to the next compound to report its CC50 at 120 h.
Would you mind telling me what CC50 at 120 h value was observed for CC1(C)CC(=O)C2=C(C1)Nc1c(O)cccc1N(C(=O)c1ccccn1)C2c1ccc(OCc2ccccc2)cc1F (centres undefined) ? 15
